measuredTarget: CaLsb1
runDescription: SPOT peptide array binding signal intensity (averaged, normalized) (arbitrary units (background-subtracted, floor 0; scale differs between SH3 domains)); higher = stronger binding of the SH3 domain to the peptide
Record form. Attribute: SPOT peptide array binding signal intensity. Fill in for each entry.

>>> readoutvalue("LKVTPGRRAPTISKI")
"≤ 0"
>>> readoutvalue("NRPAIRIPSLKKPAL")
2.5
>>> readoutvalue("STPQTMRQAPKRPDA")
0.5

Dear reader, for each entry below, please note its SPOT peptide array binding signal intensity.
1. PSTMDFPKLPSFQNS
2. QTMRQAPKRPDADVA
3. PVLPPPRSPNRPTLS
4. MKRSRPSRSIPYTTP
5. QHQQRQPKRPKRYSL
6. VATSTSPKLPPRGKQ
7. APPPPPRRATPEKKP
8. VPPVPLPFGIPPFPM

0.5
18.2
≤ 0
2.75
2.5
1
≤ 0
0.25

Dear colleague, could you send me SPOT peptide array binding signal intensity for each of the items below? Thanks.
1. IKTRSVPKIPSIESV
2. PKRRAPPPVPKKPSS
3. QPWTDQFEKLEKEVS
4. LTRRFPFLFPFDTRM
5. IRMPSNPALPKKLLN

["≤ 0", 0.5, 0.5, "≤ 0", 15.5]

Provide reported SPOT peptide array binding signal intensity for each item, in the same order as listed.
1. VFQFQMPTTPISTKM
2. SRSKPLPLTPNSKYN
3. QGYPRQPQRPQRYHP

1: 2.5; 2: 0.5; 3: ≤ 0

Go through the list and state SPOT peptide array binding signal intensity for each entry.
1. KRKRFNLLLPKPYLT
2. NLKKRPPTAPQRKIS

[8, "≤ 0"]

// each listed binder needs a value for SPOT peptide array binding signal intensity
1. RKRAPTPPAPSRSEK
2. FPGKKSPRLPHRNKK
3. SSAAPPPPPRRATPE

[5.5, 0.25, 0.5]

Batch request: SPOT peptide array binding signal intensity for each of the following binders.
1. GTIARPLFLVVLFFI
2. KKEKKPPKIPKKVYT
3. NQARKPFLLPATELS
4. DRIRMFIRFPKFLLE
5. SRQAIPPPVPNRPGG

1.25
0.25
0.5
0.5
3.75

Item SRYRRPLTLLLLKPF has what recorded SPOT peptide array binding signal intensity?
2.5
